System: Acinetobacter lwoffii
METHOD_SUMMARY: Antibacterial activity against Acinetobacter lwoffii AI.88-483 harboring APH3'-6A by microdilution assay
Format: functional
Readings of MIC for the listed compounds
PARAMETER: MIC

structure_string=CCCCCCCCCCCO[C@@H]1[C@@H](O)[C@H](O[C@H]2O[C@H](CN)[C@@H](O)[C@H](O)[C@H]2N)[C@@H](N)C[C@H]1N assayed_system="Acinetobacter lwoffii" result="> 128 µg/mL"
structure_string=CCCCCCCCCCCO[C@@H]1[C@@H](N)[C@@H](O[C@H]2[C@H](O)[C@@H](OCCCCCCC)[C@H](N)C[C@@H]2N)O[C@H](CN)[C@H]1O assayed_system="Acinetobacter lwoffii" result="> 128 µg/mL"
structure_string=CCCCCCCCCO[C@@H]1[C@@H](N)[C@@H](O[C@H]2[C@H](O)[C@@H](O)[C@H](N)C[C@@H]2N)O[C@H](CN)[C@H]1OCCCCCCCCC assayed_system="Acinetobacter lwoffii" result="32 µg/mL"
structure_string=CCCCCCCO[C@@H]1[C@@H](O)[C@H](O[C@H]2O[C@H](CN)[C@@H](O)[C@H](O)[C@H]2N)[C@@H](N)C[C@H]1N assayed_system="Acinetobacter lwoffii" result="> 128 µg/mL"
structure_string=CCCCCCCO[C@@H]1[C@@H](N)[C@@H](O[C@H]2[C@H](O)[C@@H](O)[C@H](N)C[C@@H]2N)O[C@H](CN)[C@H]1O assayed_system="Acinetobacter lwoffii" result="> 128 µg/mL"
structure_string=NC[C@H]1O[C@H](O[C@H]2[C@H](O)[C@@H](O[C@H]3O[C@H](CO)[C@@H](O)[C@H](N)[C@H]3O)[C@H](N)C[C@@H]2N)[C@H](N)C[C@@H]1O assayed_system="Acinetobacter lwoffii" result="0.5 to 1 µg/mL"
structure_string=NC[C@H]1O[C@H](O[C@H]2[C@H](O)[C@@H](OCCCCc3ccc4ccccc4c3)[C@H](N)C[C@@H]2N)[C@H](N)[C@@H](OCCCCc2ccc3ccccc3c2)[C@@H]1O assayed_system="Acinetobacter lwoffii" result="> 128 µg/mL"
structure_string=CCCCCCCO[C@@H]1[C@@H](N)[C@@H](O[C@H]2[C@H](O)[C@@H](OCCCCCCC)[C@H](N)C[C@@H]2N)O[C@H](CN)[C@H]1O assayed_system="Acinetobacter lwoffii" result="> 128 µg/mL"
structure_string=NC[C@@H]1O[C@H](O[C@H]2[C@@H](O)[C@H](O[C@@H]3[C@@H](O)[C@H](N)C[C@H](N)[C@H]3O[C@H]3O[C@H](CN)[C@@H](O)[C@H](O)[C@H]3N)O[C@@H]2CO)[C@H](N)[C@@H](O)[C@@H]1O assayed_system="Acinetobacter lwoffii" result="64 to 128 µg/mL"
structure_string=CCCCCCCCCCCO[C@@H]1[C@@H](N)[C@@H](O[C@H]2[C@H](O)[C@@H](OCCCCCCCCCCC)[C@H](N)C[C@@H]2N)O[C@H](CN)[C@H]1O assayed_system="Acinetobacter lwoffii" result="32 µg/mL"
structure_string=NC[C@H]1O[C@H](O[C@H]2[C@H](O)[C@@H](O)[C@H](N)C[C@@H]2N)[C@H](N)[C@@H](O)[C@@H]1O assayed_system="Acinetobacter lwoffii" result="> 128 µg/mL"
structure_string=CCCCCCCCCCCO[C@@H]1[C@@H](O)[C@H](O[C@H]2O[C@H](CN)[C@@H](O)[C@H](OCCCCCCC)[C@H]2N)[C@@H](N)C[C@H]1N assayed_system="Acinetobacter lwoffii" result="> 128 µg/mL"
